Hello, the source for this data is the supplement of paper PMC10724198, in case you need it.

System: Saccharomyces cerevisiae
Assay: protein stability index of tFT-peptide fusion (C-terminal peptide) (PSI (0-1 scale)); higher = more stable (slower turnover);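 also: PSI is a weighted mean of sequencing reads over stability bins, variants kept only with over 10 reads, mCherry proximal and sfGFP distal, peptide attached via GGGS linker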
Settings: genetic background: wild type; temperature: 30 C
value kind: protein stability index
# output: bare number, no unit

Looking up `PPSPHPPPSAPP` , I see its protein stability index listed as 0.641

// protein stability index lookup, sequence = `VPTCFPLSPSPP` , result: 0.714

// recorded protein stability index for `DKNDGNHKKKKN` : 0.702

get_value(item= `VWSCILPMVYVW` , readout=protein stability index) returns 0.203

Given item `LPPPPTCYDHPL` , the value recorded as its protein stability index is 0.676

Lookup result for `GGGSITTFIGDE` ; measured protein stability index: 0.695

// recorded protein stability index for `PLRPSVSALPPF` : 0.683

Lab book: protein stability index of `GSVSWVLMWSWG` noted as 0.623

Measured protein stability index, `PPPPPPPPSALP` : 0.719

In plain terms, `LLVRYRRALVLL` has a documented protein stability index of 0.142

###

Tested on: Saccharomyces cerevisiae
Assay: protein stability index of tFT-peptide fusion (C-terminal peptide) (PSI (0-1 scale)); higher = more stable (slower turnover)
Settings: genetic background: cdc34-1; temperature: 37 C
Cut-off 0.5 on protein stability index, inclusive. At or above means true; below means false.

Task: Threshold query (protein stability index >= 0.5) on `FCFLLLSWAFWV`
Output: false

Task: Reported protein stability index reaches at least 0.5 for `GRGLRVCWVWSG` ?
Output: true

Task: Can `FSQGFRSPSECL` be said to have protein stability index at or above 0.5?
Output: true

Task: Exam item: decide whether the reported protein stability index for `SINKLLILIKSI` is at least 0.5.
Output: false

Task: Could you tell me if the measured protein stability index of `KGSKGELGVHVG` reaches 0.5 or more?
Output: true

Task: Can `FKYRVPLVGVVK` be said to have protein stability index at or above 0.5?
Output: false

Task: Determine whether this sequence has protein stability index no lower than 0.5: `SFVFLVRRWLFV`
Output: false

Task: Does the sequence `RGPAYATCHLLC` have recorded protein stability index that is 0.5 or more?
Output: true

Task: Check this sequence for protein stability index at or above 0.5: `CGQIAFLGIAVK`
Output: false

Task: In plain terms: is recorded protein stability index at least 0.5 for `NYFRPWLIFHKC` ?
Output: true

Task: Could you please find out whether `VFSGVTTILVRT` has protein stability index that meets 0.5 or exceeds it?
Output: true

Task: Item `PALPQPMNPAPP` with protein stability index of 0.5 or above?
Output: true

Task: Is the recorded value of protein stability index equal to or greater than 0.5 for this sequence? `GWRFCVFIYVHR`
Output: false

Task: Textbook exercise: given the entry `CFCSFQFVRLWV` , state whether its protein stability index is greater than or equal to 0.5.
Output: true

Task: Would you say `WLFFVVLPVKAF` shows protein stability index at minimum 0.5?
Output: false

Task: Answer whether protein stability index of `HVLALIFLYIPD` is greater than or equal to 0.5.
Output: false

Task: Entry `LCYFFFISLFLG` : is its protein stability index no less than 0.5?
Output: true

Task: API: above_or_equal(metric=protein stability index, cutoff=0.5) for item `GGTFWDGLVLVH`
Output: false

Task: Reported protein stability index at or above 0.5? `KKNLTHSIRVQA`
Output: true

Task: Could you verify whether the entry `GDLEFCCLIIVL` shows protein stability index of no less than 0.5?
Output: false

Task: Record `LLTGRFRILLVV` ; criterion: protein stability index no lower than 0.5. Met?
Output: false

Task: Does `YTQKFTFYGLPA` have a reported protein stability index of at least 0.5?
Output: true

Task: Given `FVCWGSLILCGG` , state whether its protein stability index is at least 0.5.
Output: false

Task: In plain terms: is recorded protein stability index at least 0.5 for `GGSLWLVHLKTI` ?
Output: true

Task: Say whether `MTLYSFSSALLA` shows protein stability index of 0.5 or more.
Output: false

Task: hey, is protein stability index for this one >= 0.5? `FRSMFLFLNLLF`
Output: false

Task: // inclusive: protein stability index at least 0.5? input: `PTPSRPPHPPLR`
Output: true

Task: Tell me whether protein stability index is at least 0.5 here: `RYLHFASLLFAS`
Output: true

Task: Please check the record `IRWCLVSVFYVV` and state if its protein stability index is at or above 0.5.
Output: false

Task: Exam item: decide whether the reported protein stability index for `CYRRCQAFLVLV` is at least 0.5.
Output: false

Task: Given `IPGGRPLLVEVR` , state whether its protein stability index is at least 0.5.
Output: false

Task: // inclusive: protein stability index at least 0.5? input: `LASSCYRHLLVV`
Output: false

Task: In plain terms: is recorded protein stability index at least 0.5 for `LSGVLFSLIRFY` ?
Output: true

Task: I'd appreciate it if you could say whether `GAVRRWGGVSFV` has protein stability index at least equal to 0.5.
Output: true

Task: # bool: protein stability index of `PRQPSKSNASNR` >= 0.5
Output: true

Task: Is the recorded value of protein stability index equal to or greater than 0.5 for this sequence? `FVSHRRFSLFLY`
Output: true

Task: State whether the measured protein stability index reaches 0.5, counting equality as reaching it, for `CVFGFACRVLVV`
Output: false

Task: Item `LFNRCCTILVVW` with protein stability index of 0.5 or above?
Output: false

Task: Is reported protein stability index greater than or equal to 0.5 here: `IFSGCRIALSVF`
Output: false

Task: Form field: protein stability index at least 0.5? Entry: `SIWVGSRFRWVV`
Output: true

Task: // inclusive: protein stability index at least 0.5? input: `RNDCAYHVLQIV`
Output: true

Task: Quick check: does `GVVWPLGWVWVE` have protein stability index greater than or equal to 0.5?
Output: true

Task: Could you please find out whether `CFVSFLHLLYFS` has protein stability index that meets 0.5 or exceeds it?
Output: false

Task: Determine whether this sequence has protein stability index no lower than 0.5: `DPTLLLYPLSPL`
Output: true

Task: Threshold query (protein stability index >= 0.5) on `SFCSFVFVTFVL`
Output: false

Task: Check the entry `KKKKRVKIQKKN` : does protein stability index equal or exceed 0.5?
Output: true

Task: Answer whether protein stability index of `VIRIRLSCSVDV` is greater than or equal to 0.5.
Output: false

Task: Can `YLGSPLSLMLVA` be said to have protein stability index at or above 0.5?
Output: false

Task: Can `VIFFEFFLSFGE` be said to have protein stability index at or above 0.5?
Output: false

Task: Quick check, protein stability index >= 0.5? `GFGDKVPWRWVI`
Output: true

Task: Assess whether reported protein stability index for `SSLAKFQLISTY` sits at 0.5 or higher.
Output: false

Task: Decide: is the reported value of protein stability index for `WVLSRAAFVFFF` equal to or greater than 0.5?
Output: true

Task: Could you tell me if the measured protein stability index of `VFFVLAVVGADA` reaches 0.5 or more?
Output: false

Task: Could you please find out whether `HFASPPAPRSNL` has protein stability index that meets 0.5 or exceeds it?
Output: true

Task: Decide: protein stability index of `FFLLTCFLLPSV` >= 0.5?
Output: false

Task: Kindly determine if protein stability index recorded for `GGICVVAYWRLA` is above or exactly 0.5.
Output: false

Task: Please tell me: is the sequence `CEERVKSRLKQN` at or over 0.5 in terms of protein stability index?
Output: true

Task: Quick check: does `HLILWLFFVIVF` have protein stability index greater than or equal to 0.5?
Output: false

Task: Can `DLVGRETRMRLN` be said to have protein stability index at or above 0.5?
Output: true

Task: protein stability index >= 0.5 for `VKVKMKIIIIIK` ?
Output: false

Task: Is reported protein stability index greater than or equal to 0.5 here: `MRLQLTFSILLF`
Output: false

Task: Does the reported protein stability index for `RGFIFFALWSFC` fall at or above the 0.5 mark?
Output: false

Task: Is reported protein stability index greater than or equal to 0.5 here: `GIVYFDQWISVS`
Output: true

Task: Form field: protein stability index at least 0.5? Entry: `ESCIFLMWLTVL`
Output: false

Task: Say whether `RVVNRWGVCFLG` shows protein stability index of 0.5 or more.
Output: true

Task: Check the entry `FSFEGVLVPLLV` : does protein stability index equal or exceed 0.5?
Output: false

Task: Identify whether the reported protein stability index of the following sequence is 0.5 or greater: `AFRSPLLMLLVL`
Output: false

Task: Answer whether protein stability index of `LFLIFFSFLFLC` is greater than or equal to 0.5.
Output: false

Task: Hi, just wondering whether `VSLHVFVFLLAS` shows protein stability index of 0.5 or higher.
Output: false

Task: Decide: protein stability index of `ISAVLFFLYLSF` >= 0.5?
Output: false

Task: Does the sequence `ILRAGITYVYAV` have recorded protein stability index that is 0.5 or more?
Output: true

Task: Reported protein stability index at or above 0.5? `CVFAYSPVALRC`
Output: true

Task: Could you verify whether the entry `FLVIILFFLYMR` shows protein stability index of no less than 0.5?
Output: false

Task: Could you please find out whether `YLCFVVSCGVLR` has protein stability index that meets 0.5 or exceeds it?
Output: false

Task: Answer whether protein stability index of `YPFSLVLGVFAF` is greater than or equal to 0.5.
Output: false
